Where do the numbers come from? From ChEMBL document CHEMBL2203203.

Measured pEC50 of individual entries
- SYSTEM UNDER TEST: Cannabinoid receptor 1 (Homo sapiens)
- Sequence (P21554 whole entry): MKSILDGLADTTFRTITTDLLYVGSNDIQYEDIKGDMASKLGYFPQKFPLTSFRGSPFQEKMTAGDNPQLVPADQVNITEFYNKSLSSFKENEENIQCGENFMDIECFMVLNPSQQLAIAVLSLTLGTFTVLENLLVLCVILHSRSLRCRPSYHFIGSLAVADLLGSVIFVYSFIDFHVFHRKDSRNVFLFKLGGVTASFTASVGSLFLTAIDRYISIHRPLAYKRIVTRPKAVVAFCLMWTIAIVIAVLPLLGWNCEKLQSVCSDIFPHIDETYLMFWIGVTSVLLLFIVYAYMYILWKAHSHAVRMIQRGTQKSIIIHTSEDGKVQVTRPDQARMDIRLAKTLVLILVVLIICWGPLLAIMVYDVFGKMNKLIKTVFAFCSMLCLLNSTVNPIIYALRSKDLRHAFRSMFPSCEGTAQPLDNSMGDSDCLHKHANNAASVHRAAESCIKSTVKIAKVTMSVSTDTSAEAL
- MEASUREMENT NOTES: Agonist activity at human CB1 receptor after 4 hrs by luciferase reporter gene assay
pEC50: −log10 of the molar value.

[
  {
    "CHEM SMILES": "CC1(C)CCc2sc(NC(=O)c3ccccc3Cl)c(C(=O)NCC3CC3)c21",
    "QUALIFIER SYMBOL": "=",
    "pEC50": 7.80
  },
  {
    "CHEM SMILES": "O=C(Nc1sc2c(c1C(=O)N1CCC(F)(F)CC1)CCOC2)c1ccccc1OC(F)(F)F",
    "QUALIFIER SYMBOL": "=",
    "pEC50": 6.90
  },
  {
    "CHEM SMILES": "CC(C)(C)C(=O)c1c(NC(=O)c2ccccc2OC(F)(F)F)sc2c1CCOC2",
    "QUALIFIER SYMBOL": "<",
    "pEC50": 5.00
  },
  {
    "CHEM SMILES": "O=C(Nc1sc2c(c1C(=O)N1CCOCC1)CCOC2)c1ccccc1OC(F)F",
    "QUALIFIER SYMBOL": "<",
    "pEC50": 5.00
  },
  {
    "CHEM SMILES": "COCCNC(=O)c1c(NC(=O)CC(C)(C)C)sc2c1C(C)(C)CC2",
    "QUALIFIER SYMBOL": "=",
    "pEC50": 6.43
  },
  {
    "CHEM SMILES": "O=C(Nc1sc2c(c1C(=O)N1CCOCC1)CCOC2)c1ccccc1OC(F)(F)F",
    "QUALIFIER SYMBOL": "<",
    "pEC50": 5.00
  },
  {
    "CHEM SMILES": "O=C(Nc1sc2c(c1C(=O)N1CC(F)(F)C1)CCOC2)c1ccccc1OC(F)(F)F",
    "QUALIFIER SYMBOL": "=",
    "pEC50": 5.70
  },
  {
    "CHEM SMILES": "O=C(Nc1sc2c(c1C(=O)O)CCOC2)c1ccccc1Cl",
    "QUALIFIER SYMBOL": "<",
    "pEC50": 5.00
  },
  {
    "CHEM SMILES": "COCCNC(=O)c1c(NC(=O)C2CCC2)sc2c1CCCC2",
    "QUALIFIER SYMBOL": "<",
    "pEC50": 5.00
  },
  {
    "CHEM SMILES": "CC(C)(C)CC(=O)Nc1sc2c(c1C(=O)NCC1CC1)C(C)(C)CC2",
    "QUALIFIER SYMBOL": "=",
    "pEC50": 6.61
  }
]
